tested on: Plasmodium falciparum; experiment: GSK_TCMDC: Inhibition of Plasmodium falciparum Dd2 in whole red blood cells, using parasite LDH activity as an index of growth. Test compounds present at 2uM; format: functional
parameter: Inhibition (%)
Respond with the bare value in %.

Worked examples follow.
stdin: # lookup: Inhibition of `Fc1ccc2[nH]c(-c3ccc(-c4cccc(CN5CCCCC5)c4)cc3)nc2c1.O=C(O)C(F)(F)F`
stdout: 100

stdin: I have this compound here, `Cn1cc(C2CCN(CCCCCNC(=O)/C=C/c3ccc(Cl)c(Cl)c3)CC2)c2cc(O)ccc21` , and I need its recorded Inhibition.
stdout: 0

stdin: Reported Inhibition for `COc1ccc(-c2cnc3ccc(NCc4ccc(F)cc4)nn23)cc1OC` : what is it?
stdout: 99

stdin: Param item = `C#Cc1cccc(NC(=O)[C@H](CC2CCCCC2)Nc2ccc(C#N)c3ccccc23)c1.O=C(O)C(F)(F)F` ; retrieve measured Inhibition.
stdout: 99

stdin: Give its Inhibition value. Item: `Cc1ccc(Nc2nc(C)cc(Nc3cccc(C#N)c3)n2)cc1`
stdout: 96

***
stdin: Param item = `COC(=O)Nc1cc(C(F)(F)F)ccc1N1CCC(CNS(=O)(=O)c2ccc(OC)cc2)CC1` ; retrieve measured Inhibition.
stdout: 95

* * *

test system: HepG2; assay: GSK_TCMDC: Percent inhibition of human HepG2 cell line. Test compounds present at 10uM.; assay type: functional
parameter: Inhibition (%)
Please reply with the bare figure in % and do not write the unit itself.

stdin: Look up Inhibition for this molecule: Cc1cc(C(=O)CN2C(=O)NC3(CCCc4ccccc43)C2=O)c(C)n1Cc1ccco1 (stereo unspecified)
stdout: 11

stdin: Name the reported Inhibition value associated with the molecule `COC(=O)c1cc2cccc(NC[C@@H](C)NC[C@H](O)c3cccc(Cl)c3)c2[nH]1`
stdout: 0

stdin: If you can, please state the reported Inhibition value of `COc1ccc(CCOc2c(C)nc(N)nc2N)cc1OC.Cl` .
stdout: 66

stdin: Returns the measured Inhibition for the input molecule. Input: `O=C(Nc1ccc(CN2CCOCC2)cc1)c1ccc(-c2ccc(Cl)cc2)o1`
stdout: 22

stdin: # input molecule: CN(Cc1ccccc1)C1CCCN(c2cc(NC(=O)c3cccs3)ccn2)C1.O=C(O)C(F)(F)F (stereo unspecified) ; wanted: its Inhibition
stdout: 2

***
stdin: What value of measured Inhibition is listed for `Cc1cc(NC(=O)NCCN2CCC(NC(=O)c3ccc(C(F)(F)F)cc3)CC2)c2ccccc2n1.O=C(O)C(F)(F)F` ?
stdout: 3

stdin: Find the recorded Inhibition belonging to Cc1cc(CN2CC[C@H](NC(=O)c3ccc(Cl)c(Cl)c3)C2)ccc1OC1CCN(C)C1.O=C(O)C(F)(F)F (stereo partly specified) and report it.
stdout: 71

stdin: Which Inhibition reading was recorded for the molecule `COc1ccc(NC(=O)c2cc(NC(=O)C3(N)CC3)c(=O)n(Cc3ccc(C(N)=O)cc3)c2)cc1.O=C(O)C(F)(F)F` ?
stdout: 21

stdin: Can you share its Inhibition? I mean this molecule: COc1cc(C2C(Oc3ccccc3)C(=O)N2Cc2ccc(F)cc2)cc(OC)c1OC (stereo unspecified)
stdout: 0

stdin: Value lookup for Inhibition; key = `CC(=O)Nc1nc(C(=O)Nc2cccc(-c3ccc(-c4nc5cccc(C)c5[nH]4)cc3)c2)cs1`
stdout: 100

stdin: If you can, please state the reported Inhibition value of `Cc1nc2ccc3ccc(CNc4ccc(C#N)cc4)cc3c2c(=O)[nH]1` .
stdout: 55

* * *

Each entry below lists one item and its recorded Inhibition value.
tested on: Plasmodium falciparum; assay: GSK_TCMDC: Inhibition of Plasmodium falciparum 3D7 in whole red blood cells, using parasite LDH activity as an index of growth. Test compounds present at 2uM; type: functional
Could you write the number and then its unit?

Sample records with Inhibition:
stdin: Any idea what its Inhibition is? The compound is `O=C(Nc1cccc(C(F)(F)F)c1)c1ccc(S(=O)(=O)NC2CCN(CC3CCCCC3)CC2)cc1.O=C(O)C(F)(F)F`
stdout: 83%

stdin: So what does the record say about Inhibition for `O=C(Nc1cccc(CN2CCCN(Cc3ccsc3)CC2)c1)c1ccc(-c2ccccc2)cc1.O=C(O)C(F)(F)F` ?
stdout: 90%

stdin: # query: Inhibition of entry `Cc1nc(C)c(-c2ccc(Oc3cccc(OC(F)(F)F)c3)cc2)c(O)c1Cl`
stdout: 97%

stdin: Value lookup for Inhibition; key = `CCNc1cc(C(=O)N[C@@H](Cc2ccccc2)[C@H](O)CNC2(C)CCCCC2)cc(N2CCCCS2(=O)=O)c1.Cl`
stdout: 100%

stdin: // query Inhibition value for entry `Cc1cc(N)c2cc(NC(=O)CCC(=O)Nc3ccc4nc(C)cc(N)c4c3)ccc2n1`
stdout: 85%

stdin: Look up Inhibition for this compound: `Cc1cc(C(=O)NCc2ccc(-c3c(C)noc3C)cc2)n(-c2ccc(Cl)cc2)n1`
stdout: 100%

Further cases:
stdin: Please give the measured Inhibition for this compound: O=C(O)C(F)(F)F.OC1CCCN(Cc2cccc(-c3ccc(-c4nc5cc(F)ccc5[nH]4)cc3)c2)C1 (stereo not drawn)
stdout: 100%

stdin: Quick one: Inhibition of `CC(C)CN(c1nc(C(=O)NNC(=O)[C@H](CC2CC2)NC(=O)c2cc3cc(OCCN(C)C)ccc3o2)cs1)C1CC1` ?
stdout: 87%

stdin: Name the reported Inhibition value associated with the compound `COC(=O)c1ccccc1N1CCN(CCCCNC(=O)c2ccc(NC(=O)c3cc(Cl)cc(Cl)c3)cc2)CC1`
stdout: 100%

stdin: Endpoint output: Inhibition of `CCCc1cn2c3c(cc(C(=O)N[C@@H](Cc4ccccc4)[C@H](O)CNC4CCOCC4)cc13)N(CC)S(=O)(=O)CC2.O=CO` . Value?
stdout: 97%

stdin: What does the record list as Inhibition for `CC(C)NCc1cccc(-c2ccc(-c3nc4cc(C(F)(F)F)ccc4[nH]3)cc2)c1.O=C(O)C(F)(F)F` ?
stdout: 99%

stdin: Which Inhibition reading was recorded for the compound `CC(C)CCOc1ccc(NC(=O)c2cccs2)cc1` ?
stdout: 95%

stdin: Param item = `Cc1ccc(-c2nnc(-c3ccc(C(=O)NC4CCN(Cc5ccc(C#N)cc5)CC4)cc3)o2)cc1Br` ; retrieve measured Inhibition.
stdout: 91%

stdin: Which measured Inhibition value corresponds to `Cc1noc(C)c1-c1ccc2c(Nc3ccccc3C(C)(C)C)c(C(=O)NCc3ccccc3)cnc2c1.Cl` ?
stdout: 99%

stdin: # input compound: `COC(=O)c1cc(C(=O)CN(Cc2ccccc2)C(C)C)ccc1O.Cl` ; wanted: its Inhibition
stdout: 97%

stdin: Need Inhibition of `CCc1ccc(CN(CCCOc2cccc(CC(=O)NCc3c[nH]cn3)c2)Cc2ccc(-n3ccnc3)cc2)cc1` , thanks.
stdout: 99%

stdin: Can you share its Inhibition? I mean this compound: `Cc1cc(Nc2ccc(O)cc2)nc2cccc(O)c12`
stdout: 99%

stdin: Need Inhibition, item `Fc1ccc(-c2oc(C3CCN(CCc4ccc(-c5noc(=S)[nH]5)cc4)CC3)nc2COCC(F)(F)F)cc1`
stdout: 97%

* * *

system: Plasmodium falciparum; experiment: GSK_TCMDC: Inhibition of Plasmodium falciparum 3D7 in whole red blood cells, using parasite LDH activity as an index of growth. Test compounds present at 2uM; type: functional
parameter: Inhibition

Below: 2 compounds and their reported Inhibition.
stdin: Value lookup for Inhibition; key = `Cc1cccc2nc(-c3ccc(-c4ccc(CN5CCN(CCO)CC5)cc4)s3)[nH]c12.O=C(O)C(F)(F)F`
stdout: 92%

stdin: Reported Inhibition, compound `CCCCCCn1c(Sc2ccc(C#N)c([N+](=O)[O-])c2)nnc1-c1cccs1` : ____
stdout: 97%

Further cases:
stdin: Look at this compound and give its reported Inhibition. COc1ccccc1C1CCN(C2CCC(NC(=O)/C=C/c3cc(F)c(F)cc3F)CC2)CC1 (stereo not drawn)
stdout: 85%

stdin: Give the measured Inhibition of `COc1c(C)[nH]c(C)c(-c2ccc(Oc3cccc(C(F)(F)F)c3)cc2)c1=O` .
stdout: 98%

stdin: GET /values?readout=Inhibition&item= `COc1cccc(CNc2ncc(-c3ccsc3)c(-c3nccs3)n2)c1`
stdout: 89%

stdin: Sample `Cn1ccnc1CNC(=O)c1ccc(-c2cccc(-c3nc4cc(C(F)(F)F)ccc4[nH]3)c2)cc1` — what was its Inhibition?
stdout: 100%

stdin: Report Inhibition for `Cn1nccc1C(=O)NCCNCc1ccc(-c2ccc(-c3nc4cc(C(F)(F)F)ccc4[nH]3)cc2)cc1.O=C(O)C(F)(F)F` please.
stdout: 100%

stdin: Recorded Inhibition for `Cc1cccc2nc(-c3ccc(-c4ccc(CN5CCC(C(N)=O)CC5)cc4)cc3)[nH]c12.O=C(O)C(F)(F)F` , please?
stdout: 91%

stdin: Dear colleague, I am looking for the recorded Inhibition of the following compound: `COc1cc(SC)c(Br)cc1-c1nc2ccncc2[nH]1`
stdout: 91%

stdin: Name the reported Inhibition value associated with the compound `Br.CC(C)(C)OC(=O)N[C@@H](CS(=O)(=O)CCNC(=N)COCc1ccccc1)C(=O)OC(C)(C)C`
stdout: 88%

stdin: Given the compound `Cl.O=C(NCCCCN1CCC(O)(c2ccc(Cl)cc2)CC1)c1ccc(Br)cc1` , what is its reported Inhibition?
stdout: 82%

stdin: Sample `Cc1ccc(Nc2nc(C)cc(NC3CC3)n2)cc1` — what was its Inhibition?
stdout: 97%

stdin: Can you share its Inhibition? I mean this compound: Cc1ccc(C2(C)CC(C)(C)N(C(=O)COc3ccc4ccccc4c3)c3ccccc32)cc1 (stereo not drawn)
stdout: 100%
